Source of measurements: patent US20140004182A1

Test system: Phosphodiesterase 4 enzyme purified from U937 human monocytic cells
Assay: Inhibition of PDE4 (phosphodiesterase reaction with [3H]-cAMP)
Format: biochemical
Settings: 1 μM cAMP plus 10 nM [3H]-cAMP, 45 min at 30° C., pH 7.5
Procedure: Phosphodiesterase 4 enzyme was purified from U937 human monocytic cells by gel filtration chromatography, and phosphodiesterase reactions were carried out as previously described. See, e.g., Muller et al., Bioorg. Med. Chem. Lett., 1998, 8(19): 2669-2674. Briefly, reactions were carried out in 96-well deep-well plates in 50 mM Tris HCl pH 7.5, 5 mM MgCl2, 1 μM cyclic adenosine monophosphate (cAMP), plus 10 nM [^3H]-cAMP for 45 min at 30° C. […]
ATTRIBUTE_MEASURED: pIC50
Please keep in mind that pIC50 is minus log10 of the molar concentration; only the number is needed.

Note down pIC50 recorded for CCOc1cc([C@@H](CS(C)(=O)=O)N2C(=O)c3cccc(NC(C)=O)c3C2=O)ccc1OC
7.13
